Provide the recorded log10 IC50 for the entries that follow.
target: 3-hydroxy-3-methylglutaryl-coenzyme A reductase (Homo sapiens, UniProt P04035); experiment: Inhibition of cellular HMG-CoA reductase in cultures of hepatic cells (HEP G2, a human hepatoma cell line); assay type: cell-based
Please note: log10 values; quantity IC50; unit nM.

response.value for `Cc1c(/C=C/[C@@H](O)C[C@@H](O)CC(=O)O)c(-c2ccc(F)cc2)c(C)n1-c1ccccc1` (field: log10 IC50) = 3.70

response.value for `Cc1c(/C=C/[C@@H](O)C[C@@H](O)CC(=O)O)c(-c2ccc(F)cc2)cn1C(C)C` (field: log10 IC50) = 3.78

response.value for CC(C)c1c(CC[C@@H](O)C[C@@H](O)CC(=O)[O-])c(-c2ccc(F)cc2)cn1C(C)C.[Na+] (racemic) (field: log10 IC50) = 0.30

response.value for `CC(C)c1c(/C=C/[C@H](O)C[C@@H](O)CC(=O)O)c(-c2ccc(F)cc2)cn1C1CCCCC1` (field: log10 IC50) = 2.03

response.value for `Cc1c(CC[C@@H](O)C[C@@H](O)CC(=O)O)c(-c2ccc(F)cc2)c(C)n1-c1ccccc1` (field: log10 IC50) = 2.76

response.value for `Cc1c(CC[C@@H](O)C[C@@H](O)CC(=O)O)c(-c2ccc(F)cc2)cn1C(C)C` (field: log10 IC50) = 2.43

###

Provide the recorded Relative potency for the entries that follow.
Target: 3-hydroxy-3-methylglutaryl-coenzyme A reductase (Homo sapiens)
Sequence (whole entry): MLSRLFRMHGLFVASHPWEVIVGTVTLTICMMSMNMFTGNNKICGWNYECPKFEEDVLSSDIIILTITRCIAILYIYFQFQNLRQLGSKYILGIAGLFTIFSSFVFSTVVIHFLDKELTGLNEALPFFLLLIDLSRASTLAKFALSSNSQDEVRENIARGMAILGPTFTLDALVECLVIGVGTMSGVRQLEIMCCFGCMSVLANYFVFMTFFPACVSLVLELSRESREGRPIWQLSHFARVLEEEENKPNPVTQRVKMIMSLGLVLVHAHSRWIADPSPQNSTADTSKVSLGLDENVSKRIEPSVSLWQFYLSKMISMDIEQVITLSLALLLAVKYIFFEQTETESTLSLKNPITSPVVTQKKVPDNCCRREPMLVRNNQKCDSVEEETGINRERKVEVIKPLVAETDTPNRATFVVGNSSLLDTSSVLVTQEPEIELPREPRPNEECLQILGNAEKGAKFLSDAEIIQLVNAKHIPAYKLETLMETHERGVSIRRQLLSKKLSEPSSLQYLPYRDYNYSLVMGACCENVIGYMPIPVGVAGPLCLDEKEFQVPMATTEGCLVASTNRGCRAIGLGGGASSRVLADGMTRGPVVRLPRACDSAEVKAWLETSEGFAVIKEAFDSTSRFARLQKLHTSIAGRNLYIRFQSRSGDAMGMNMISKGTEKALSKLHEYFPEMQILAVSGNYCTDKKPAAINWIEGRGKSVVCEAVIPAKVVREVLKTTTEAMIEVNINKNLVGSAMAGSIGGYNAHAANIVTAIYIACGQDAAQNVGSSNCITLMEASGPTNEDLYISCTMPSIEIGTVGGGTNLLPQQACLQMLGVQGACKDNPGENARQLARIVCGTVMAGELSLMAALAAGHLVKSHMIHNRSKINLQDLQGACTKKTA
Experiment: Inhibition of cellular HMG-CoA reductase in cultures of hepatic cells (HEP G2, a human hepatoma cell line) relative to mevinolin
Format: cell-based
Give the figure only, with no unit attached.

response.value for `Cc1c(/C=C/[C@@H](O)C[C@@H](O)CC(=O)O)c(-c2ccc(F)cc2)cn1C(C)C` (field: Relative potency) = 1

response.value for `CC(C)c1c(/C=C/[C@H](O)C[C@@H](O)CC(=O)O)c(-c2ccc(F)cc2)cn1C1CCCCC1` (field: Relative potency) = 47

response.value for `Cc1c(/C=C/[C@@H](O)C[C@@H](O)CC(=O)O)c(-c2ccc(F)cc2)c(C)n1-c1ccccc1` (field: Relative potency) = 1

###

Provide the recorded Relative potency for the entries that follow.
biological target: 3-hydroxy-3-methylglutaryl-coenzyme A reductase (Homo sapiens) (UniProt P04035); assay: Inhibition of cellular HMG-CoA reductase in cultures of hepatic cells (HEP G2, a human hepatoma cell line) relative to mevinolin; type: cell-based
Give the figure only, with no unit attached.

response.value for CC(C)c1c(CC[C@@H](O)C[C@@H](O)CC(=O)O)c(-c2ccc(F)cc2)cn1C(C)C (racemic) (field: Relative potency) = 2500

response.value for `Cc1c(CC[C@@H](O)C[C@@H](O)CC(=O)O)c(-c2ccc(F)cc2)cn1C(C)C` (field: Relative potency) = 19

response.value for `Cc1c(CC[C@@H](O)C[C@@H](O)CC(=O)O)c(-c2ccc(F)cc2)c(C)n1-c1ccccc1` (field: Relative potency) = 9

###

target: 3-hydroxy-3-methylglutaryl-coenzyme A reductase (Rattus norvegicus) (UniProt P51639); experiment: In vitro inhibition of solubilized, partially purified rat liver HMG-CoA reductase relative to mevinolin
Readout Type: Relative potency

response.value for CC(C)c1c(CCC(O)CC(O)CC(=O)[O-])c(-c2ccc(F)cc2)cn1-c1ccccc1.[Na+] (racemic) (field: Relative potency) = 128

response.value for `Cc1c(/C=C/[C@@H](O)C[C@@H](O)CC(=O)O)c(-c2ccc(F)cc2)c(C)n1-c1ccccc1` (field: Relative potency) = 3

response.value for `Cc1c(CC[C@@H](O)C[C@@H](O)CC(=O)O)c(-c2ccc(F)cc2)c(C)n1-c1ccccc1` (field: Relative potency) = 11

response.value for `Cc1c(-c2ccc(F)cc2)c(CC[C@@H](O)C[C@@H](O)CC(=O)O)c(C(C)C)n1-c1ccccc1` (field: Relative potency) = 300

###

target: UniProt:P51639; test: In vitro inhibition of solubilized, partially purified rat liver HMG-CoA reductase relative to mevinolin
The threshold is inclusive: Relative potency of exactly 80 counts as label 1; values below receive label 0.

Check the entry Cc1c(-c2ccc(F)cc2)c(CC[C@@H](O)C[C@@H](O)CC(=O)O)c(C(C)C)n1-c1ccccc1 (racemic) : does Relative potency equal or exceed 80?
label 1

Check the entry `CC(C)c1c(/C=C/[C@H](O)C[C@@H](O)CC(=O)O)c(-c2ccc(F)cc2)cn1C1CCCCC1` : does Relative potency equal or exceed 80?
label 0

Check the entry `CC(C)c1c(CC[C@@H](O)C[C@@H](O)CC(=O)O)c(-c2ccc(F)cc2)cn1C(C)C` : does Relative potency equal or exceed 80?
label 1

Check the entry `CC(C)c1c(CC[C@@H](O)C[C@@H](O)CC(=O)O)c(-c2ccc(F)cc2)cn1-c1ccccc1` : does Relative potency equal or exceed 80?
label 1

Check the entry `Cc1c(/C=C/[C@@H](O)C[C@@H](O)CC(=O)O)c(-c2ccc(F)cc2)cn1C(C)C` : does Relative potency equal or exceed 80?
label 0

Check the entry `Cc1c(CC[C@@H](O)C[C@@H](O)CC(=O)O)c(-c2ccc(F)cc2)cn1C(C)C` : does Relative potency equal or exceed 80?
label 0

Check the entry CC(C)c1c(CC[C@@H](O)C[C@@H](O)CC(=O)O)c(-c2ccc(F)cc2)cn1C(C)C (racemic) : does Relative potency equal or exceed 80?
label 0

###

Target: 3-hydroxy-3-methylglutaryl-coenzyme A reductase (Rattus norvegicus)
Sequence (P51639 whole entry): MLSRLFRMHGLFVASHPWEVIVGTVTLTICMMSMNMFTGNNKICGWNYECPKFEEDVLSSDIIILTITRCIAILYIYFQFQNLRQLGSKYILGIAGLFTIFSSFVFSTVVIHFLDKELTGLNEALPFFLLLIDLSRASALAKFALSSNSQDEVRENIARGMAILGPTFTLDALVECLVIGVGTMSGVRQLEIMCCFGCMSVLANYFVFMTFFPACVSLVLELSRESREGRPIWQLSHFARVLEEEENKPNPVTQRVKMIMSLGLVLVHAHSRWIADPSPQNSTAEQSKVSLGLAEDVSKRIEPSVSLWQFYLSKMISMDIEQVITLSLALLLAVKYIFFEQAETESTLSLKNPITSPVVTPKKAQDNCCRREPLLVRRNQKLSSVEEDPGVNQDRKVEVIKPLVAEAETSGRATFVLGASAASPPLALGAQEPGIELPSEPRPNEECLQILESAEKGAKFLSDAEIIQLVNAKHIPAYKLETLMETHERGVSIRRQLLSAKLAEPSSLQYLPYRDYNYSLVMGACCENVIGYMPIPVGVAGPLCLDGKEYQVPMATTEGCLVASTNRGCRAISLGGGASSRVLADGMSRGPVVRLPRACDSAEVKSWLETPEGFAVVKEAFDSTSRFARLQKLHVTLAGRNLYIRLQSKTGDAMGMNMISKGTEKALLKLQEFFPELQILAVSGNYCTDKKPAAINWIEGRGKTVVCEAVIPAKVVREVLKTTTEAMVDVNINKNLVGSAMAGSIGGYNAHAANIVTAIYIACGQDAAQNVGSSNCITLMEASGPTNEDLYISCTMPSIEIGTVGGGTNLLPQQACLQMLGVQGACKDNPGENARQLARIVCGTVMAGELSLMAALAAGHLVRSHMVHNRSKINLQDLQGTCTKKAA
Readout Type: IC50 (µM)
Write the answer as a number in µM, unit excluded.

response.value for `Cc1c(CC[C@@H](O)C[C@@H](O)CC(=O)O)c(-c2ccc(F)cc2)cn1C(C)C` (field: IC50) = 0.1

response.value for `Cc1c(CC[C@@H](O)C[C@@H](O)CC(=O)O)c(-c2ccc(F)cc2)c(C)n1-c1ccccc1` (field: IC50) = 0.07

response.value for CC(C)c1c(CC[C@@H](O)C[C@@H](O)CC(=O)[O-])c(-c2ccc(F)cc2)cn1C(C)C.[Na+] (racemic) (field: IC50) = 0.018

response.value for CC(C)c1c(CCC(O)CC(O)CC(=O)[O-])c(-c2ccc(F)cc2)cn1-c1ccccc1.[Na+] (racemic) (field: IC50) = 0.006

response.value for `Cc1c(/C=C/[C@@H](O)C[C@@H](O)CC(=O)O)c(-c2ccc(F)cc2)c(C)n1-c1ccccc1` (field: IC50) = 0.25

response.value for `CC(C)c1c(/C=C/[C@H](O)C[C@@H](O)CC(=O)O)c(-c2ccc(F)cc2)cn1C1CCCCC1` (field: IC50) = 0.069

response.value for `CC(C)c1c(CC[C@@H](O)C[C@@H](O)CC(=O)O)c(-c2ccc(F)cc2)cn1C(C)C` (field: IC50) = 0.009
